target: Amyloid-beta precursor protein (Homo sapiens) (UniProt P05067); conditions: at 50 µM
Sequence (P05067 whole entry): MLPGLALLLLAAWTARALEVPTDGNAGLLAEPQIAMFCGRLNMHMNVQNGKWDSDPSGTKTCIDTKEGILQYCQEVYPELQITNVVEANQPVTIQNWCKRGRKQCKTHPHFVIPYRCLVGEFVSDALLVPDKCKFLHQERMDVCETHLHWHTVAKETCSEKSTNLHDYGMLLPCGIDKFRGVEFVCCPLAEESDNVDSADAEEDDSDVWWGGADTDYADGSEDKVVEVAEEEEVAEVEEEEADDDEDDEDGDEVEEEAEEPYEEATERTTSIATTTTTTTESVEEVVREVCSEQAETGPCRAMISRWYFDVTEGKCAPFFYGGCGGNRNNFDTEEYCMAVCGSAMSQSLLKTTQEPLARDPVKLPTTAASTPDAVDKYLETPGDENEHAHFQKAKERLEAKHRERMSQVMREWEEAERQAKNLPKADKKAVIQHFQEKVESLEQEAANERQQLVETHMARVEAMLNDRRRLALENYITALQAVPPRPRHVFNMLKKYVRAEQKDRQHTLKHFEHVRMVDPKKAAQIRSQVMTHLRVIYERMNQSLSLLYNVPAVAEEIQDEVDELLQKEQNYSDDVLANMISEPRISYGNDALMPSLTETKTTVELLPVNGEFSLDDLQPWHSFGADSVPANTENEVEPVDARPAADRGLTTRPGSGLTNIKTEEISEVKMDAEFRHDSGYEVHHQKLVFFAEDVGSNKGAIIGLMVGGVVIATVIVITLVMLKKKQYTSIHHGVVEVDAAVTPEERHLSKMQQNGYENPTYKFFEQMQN
Description: Inhibition of amyloid beta (1 to 42) (unknown origin) self aggregation at 50 uM incubated for 48 hrs by thioflavin-T fluorescence method relative to control
Quick rule: inhibition of at least 60% means Met, below that means Not met.

Worked examples follow.
# SAMPLE SMILES, CATEGORY
records = [
    ("c1ccc(COc2ccc(CCOCCCCCNc3c4c(nc5ccccc35)CCCC4)cc2)cc1", "Met"),
    ("Oc1ccc(CCOCCCCCNc2c3c(nc4ccccc24)CCCC3)cc1", "Not met"),
    ("COc1ccc(CCOCCCCCNc2c3c(nc4ccccc24)CCCC3)cc1", "Met"),
    ("c1ccc(COc2ccc(CCOCCCCCNc3c4c(nc5ccccc35)CCCC4)cc2OCc2ccccc2)cc1", "Met"),
]

Next, consider the following compound.
Ask: hey, is inhibition for this one >= 60%? COc1ccc(CCOCCCCCNc2c3c(nc4ccccc24)CCCC3)cc1OC
Reply: Met

---

target: Cholinesterase (Equus caballus)
Sequence (P81908 whole entry): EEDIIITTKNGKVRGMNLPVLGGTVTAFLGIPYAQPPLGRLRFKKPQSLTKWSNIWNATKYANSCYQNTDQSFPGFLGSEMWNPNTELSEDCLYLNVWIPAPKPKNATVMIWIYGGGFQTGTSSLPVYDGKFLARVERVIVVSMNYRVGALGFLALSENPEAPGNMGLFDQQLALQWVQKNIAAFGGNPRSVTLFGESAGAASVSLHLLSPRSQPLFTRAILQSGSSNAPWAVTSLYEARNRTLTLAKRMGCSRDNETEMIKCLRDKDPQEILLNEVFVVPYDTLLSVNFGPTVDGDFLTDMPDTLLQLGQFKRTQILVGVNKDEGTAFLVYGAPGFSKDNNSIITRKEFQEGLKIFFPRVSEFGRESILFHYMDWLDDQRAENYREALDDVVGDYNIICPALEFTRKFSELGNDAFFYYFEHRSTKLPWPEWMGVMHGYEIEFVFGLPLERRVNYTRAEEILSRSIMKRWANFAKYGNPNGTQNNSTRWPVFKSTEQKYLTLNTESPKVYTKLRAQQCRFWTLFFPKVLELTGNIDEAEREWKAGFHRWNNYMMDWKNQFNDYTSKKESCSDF
List of pKi values.
pKi here: minus log base 10 of the concentration, concentration in moles per litre.

# SAMPLE SMILES, pKi
records = [
    ("Oc1ccc(CNc2c3c(nc4ccccc24)CCCC3)cc1", 8.49),
    ("Oc1ccc(CNc2c3c(nc4ccccc24)CCCC3)cc1O", 8.49),
    ("Oc1ccc(CCOCCCCCNc2c3c(nc4ccccc24)CCCC3)cc1O", 8.05),
]

Ask: Find pKi (Cholinesterase (Equus caballus)) for the entry Oc1ccc(CCOCCCCCNc2c3c(nc4ccccc24)CCCC3)cc1
Reply: 8.35

Ask: Find pKi (Cholinesterase (Equus caballus)) for the entry COc1ccc(CCOCCCCCNc2c3c(nc4ccccc24)CCCC3)cc1
Reply: 8.54

Ask: Find pKi (Cholinesterase (Equus caballus)) for the entry COc1ccc(CNCCCCCNc2c3c(nc4ccccc24)CCCC3)cc1OC
Reply: 8.00

Ask: Find pKi (Cholinesterase (Equus caballus)) for the entry COc1ccc(/C=N/c2c3c(nc4ccccc24)CCCC3)cc1OC
Reply: 7.46

Ask: Find pKi (Cholinesterase (Equus caballus)) for the entry c1ccc(COc2ccc(CCNc3c4c(nc5ccccc35)CCCC4)cc2)cc1
Reply: 8.96

Ask: Find pKi (Cholinesterase (Equus caballus)) for the entry C(=N\c1c2c(nc3ccccc13)CCCC2)/c1ccc(OCc2ccccc2)c(OCc2ccccc2)c1
Reply: 6.76

Ask: Find pKi (Cholinesterase (Equus caballus)) for the entry Oc1ccc(CCNc2c3c(nc4ccccc24)CCCC3)cc1O
Reply: 7.55

Ask: Find pKi (Cholinesterase (Equus caballus)) for the entry C(=N\c1c2c(nc3ccccc13)CCCC2)/c1ccc(OCc2ccccc2)cc1
Reply: 6.19

---

target: Acetylcholinesterase (Homo sapiens); experiment: Inhibition of human recombinant AChE expressed in HEK293 cells using […] as substrate preincubated with enzyme for 20 mins followed by substrate addition and measured after 5 mins by Ellman's method
Sequence (P22303 whole entry): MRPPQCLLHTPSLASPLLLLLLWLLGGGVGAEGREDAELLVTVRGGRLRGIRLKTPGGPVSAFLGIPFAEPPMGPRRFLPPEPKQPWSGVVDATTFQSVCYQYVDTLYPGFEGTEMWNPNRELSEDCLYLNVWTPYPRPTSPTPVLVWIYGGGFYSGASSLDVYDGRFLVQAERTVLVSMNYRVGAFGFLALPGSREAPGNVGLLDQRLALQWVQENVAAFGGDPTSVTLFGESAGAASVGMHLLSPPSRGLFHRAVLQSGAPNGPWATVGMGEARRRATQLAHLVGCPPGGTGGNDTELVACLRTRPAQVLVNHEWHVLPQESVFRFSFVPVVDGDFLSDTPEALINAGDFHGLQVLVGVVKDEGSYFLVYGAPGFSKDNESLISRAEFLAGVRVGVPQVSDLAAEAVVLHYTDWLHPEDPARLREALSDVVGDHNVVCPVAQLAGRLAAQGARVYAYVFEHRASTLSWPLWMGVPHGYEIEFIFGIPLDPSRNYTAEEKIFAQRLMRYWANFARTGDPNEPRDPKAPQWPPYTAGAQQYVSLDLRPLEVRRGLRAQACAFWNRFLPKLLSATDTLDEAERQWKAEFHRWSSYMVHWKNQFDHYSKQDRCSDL
List of pIC50 values.
pIC50 here: minus log base 10 of the concentration, concentration in moles per litre.

# SAMPLE SMILES, pIC50
records = [
    ("Oc1ccc(CNCCCCCCNc2c3c(nc4ccccc24)CCCC3)cc1O", 7.54),
]

Ask: Fill in the blank: the reported pIC50 of COc1ccc(CCOCCCCCNc2c3c(nc4ccccc24)CCCC3)cc1 is ____.
Reply: 6.67

Ask: Fill in the blank: the reported pIC50 of Oc1ccc(/C=N/c2c3c(nc4ccccc24)CCCC3)cc1 is ____.
Reply: 5.83

Ask: Fill in the blank: the reported pIC50 of Oc1ccc(CCOCCCCCNc2c3c(nc4ccccc24)CCCC3)cc1 is ____.
Reply: 6.85

Ask: Fill in the blank: the reported pIC50 of COc1ccc(CCOCCCCCNc2c3c(nc4ccccc24)CCCC3)cc1OC is ____.
Reply: 6.77

Ask: Fill in the blank: the reported pIC50 of c1ccc(COc2ccc(CCOCCCCCNc3c4c(nc5ccccc35)CCCC4)cc2OCc2ccccc2)cc1 is ____.
Reply: 6.30

Ask: Fill in the blank: the reported pIC50 of c1ccc(COc2ccc(CCOCCCCCNc3c4c(nc5ccccc35)CCCC4)cc2)cc1 is ____.
Reply: 6.34

Ask: Fill in the blank: the reported pIC50 of Oc1ccc(CNc2c3c(nc4ccccc24)CCCC3)cc1O is ____.
Reply: 7.00

---

molecular target: Acetylcholinesterase (Electrophorus electricus, UniProt O42275)
Sequence (O42275 whole entry): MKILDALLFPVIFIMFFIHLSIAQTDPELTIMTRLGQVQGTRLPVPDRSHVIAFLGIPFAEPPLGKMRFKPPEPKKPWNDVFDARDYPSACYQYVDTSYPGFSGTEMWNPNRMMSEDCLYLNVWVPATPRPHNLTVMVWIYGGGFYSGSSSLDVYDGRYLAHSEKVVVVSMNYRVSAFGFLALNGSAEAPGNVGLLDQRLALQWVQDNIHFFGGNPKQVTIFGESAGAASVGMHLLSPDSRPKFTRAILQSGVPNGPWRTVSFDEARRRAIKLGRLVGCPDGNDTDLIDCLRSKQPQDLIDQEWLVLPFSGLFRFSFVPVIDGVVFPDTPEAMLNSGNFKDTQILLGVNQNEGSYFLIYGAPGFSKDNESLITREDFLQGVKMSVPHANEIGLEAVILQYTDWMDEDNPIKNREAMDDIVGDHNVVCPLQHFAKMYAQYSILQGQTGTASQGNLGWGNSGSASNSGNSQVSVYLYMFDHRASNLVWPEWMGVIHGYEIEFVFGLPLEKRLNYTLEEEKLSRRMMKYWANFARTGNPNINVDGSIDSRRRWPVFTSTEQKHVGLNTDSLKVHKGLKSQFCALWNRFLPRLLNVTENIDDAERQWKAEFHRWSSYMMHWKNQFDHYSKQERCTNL
PROPERTY: Ki (nM)
The reply should be a number in nM, with the unit left off.

Record excerpt, results attached:
# SAMPLE SMILES, READOUT VALUE
records = [
    ("Oc1ccc(CNc2c3c(nc4ccccc24)CCCC3)cc1O", 190),
    ("Oc1ccc(CNc2c3c(nc4ccccc24)CCCC3)cc1", 81),
    ("Oc1ccc(CCNc2c3c(nc4ccccc24)CCCC3)cc1O", 590),
    ("COc1ccc(CNc2c3c(nc4ccccc24)CCCC3)cc1OC", 210),
    ("COc1ccc(CCOCCCCCNc2c3c(nc4ccccc24)CCCC3)cc1", 75),
    ("Oc1cc(/C=N/c2c3c(nc4ccccc24)CCCC3)cc(O)c1O", 170),
    ("c1ccc(COc2ccc(CCNc3c4c(nc5ccccc35)CCCC4)cc2)cc1", 610),
    ("Oc1ccc(CCNc2c3c(nc4ccccc24)CCCC3)cc1", 32),
    ("C(=N\\c1c2c(nc3ccccc13)CCCC2)/c1cc(OCc2ccccc2)c(OCc2ccccc2)c(OCc2ccccc2)c1", 3000),
    ("c1ccc(COc2ccc(CCOCCCCCNc3c4c(nc5ccccc35)CCCC4)cc2OCc2ccccc2)cc1", 130),
]

Ask: Fill in the blank: the reported Ki of COc1ccc(CCOCCCCCNc2c3c(nc4ccccc24)CCCC3)cc1OC is ____.
Reply: 55

Ask: Fill in the blank: the reported Ki of c1ccc2c(N3CCCCC3)c3c(nc2c1)CCCC3 is ____.
Reply: 2500

Ask: Fill in the blank: the reported Ki of C(=N\c1c2c(nc3ccccc13)CCCC2)/c1ccc(OCc2ccccc2)cc1 is ____.
Reply: 23000

Ask: Fill in the blank: the reported Ki of Oc1ccc(CNCCCCCCNc2c3c(nc4ccccc24)CCCC3)cc1O is ____.
Reply: 58

Ask: Fill in the blank: the reported Ki of Oc1ccc(CCOCCCCCNc2c3c(nc4ccccc24)CCCC3)cc1O is ____.
Reply: 77

Ask: Fill in the blank: the reported Ki of COc1ccc(CNCCCCCNc2c3c(nc4ccccc24)CCCC3)cc1OC is ____.
Reply: 120

---

biological target: Cholinesterase (Homo sapiens); assay: Inhibition of human serum BuChe by Ellman's method
Sequence (P06276 whole entry): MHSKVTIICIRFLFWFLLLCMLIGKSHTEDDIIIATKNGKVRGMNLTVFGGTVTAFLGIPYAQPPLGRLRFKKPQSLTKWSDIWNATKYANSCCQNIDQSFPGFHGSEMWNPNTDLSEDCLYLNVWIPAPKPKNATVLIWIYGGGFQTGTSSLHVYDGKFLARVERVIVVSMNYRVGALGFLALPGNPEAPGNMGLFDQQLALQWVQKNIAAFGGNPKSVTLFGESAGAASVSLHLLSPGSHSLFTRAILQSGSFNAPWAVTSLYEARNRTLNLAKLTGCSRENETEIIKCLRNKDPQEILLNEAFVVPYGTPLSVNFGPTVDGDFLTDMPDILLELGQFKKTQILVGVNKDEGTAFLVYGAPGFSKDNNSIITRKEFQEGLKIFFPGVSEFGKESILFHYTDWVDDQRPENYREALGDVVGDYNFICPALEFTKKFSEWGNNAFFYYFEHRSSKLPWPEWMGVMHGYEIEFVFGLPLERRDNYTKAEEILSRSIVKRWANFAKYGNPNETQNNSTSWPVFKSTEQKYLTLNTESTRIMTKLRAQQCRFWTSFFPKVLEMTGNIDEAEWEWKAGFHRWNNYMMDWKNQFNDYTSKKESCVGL
pIC50: −log10 of the molar value.
Quick rule: pIC50 of at least 8 means true (1), below that means false (0).

Worked examples follow.
# SAMPLE SMILES, CATEGORY
data = [
    ("Oc1ccc(CNc2c3c(nc4ccccc24)CCCC3)cc1O", "false (0)"),
    ("Oc1ccc(/C=N/c2c3c(nc4ccccc24)CCCC3)cc1", "false (0)"),
    ("Oc1ccc(CNCCCCCCNc2c3c(nc4ccccc24)CCCC3)cc1O", "false (0)"),
    ("COc1ccc(CCOCCCCCNc2c3c(nc4ccccc24)CCCC3)cc1OC", "true (1)"),
    ("COc1ccc(CCOCCCCCNc2c3c(nc4ccccc24)CCCC3)cc1", "true (1)"),
]

Ask: hey, is pIC50 for this one >= 8? Oc1cc(/C=N/c2c3c(nc4ccccc24)CCCC3)cc(O)c1O
Reply: false (0)

Ask: hey, is pIC50 for this one >= 8? c1ccc(COc2ccc(CCOCCCCCNc3c4c(nc5ccccc35)CCCC4)cc2OCc2ccccc2)cc1
Reply: true (1)

Ask: hey, is pIC50 for this one >= 8? Oc1ccc(CCOCCCCCNc2c3c(nc4ccccc24)CCCC3)cc1O
Reply: false (0)

Ask: hey, is pIC50 for this one >= 8? Oc1ccc(/C=N/c2c3c(nc4ccccc24)CCCC3)cc1O
Reply: false (0)

---

assay: Selectivity index, ratio of GI50 for human hTERT-BJ cells to GI50 for human T47D cells after 48 hrs by SRB assay; format: toxicity; settings: hTERT-BJ cells and T47D cells, read-out: RatioGI50
PROPERTY: selectivity ratio at 48 h

Ask: Fill in the blank: the reported selectivity ratio at 48 h of c1ccc2c(N3CCCCC3)c3c(nc2c1)CCCC3 is ____.
Reply: 5

---

Each entry below carries its measured pKi, system: UniProt:P81908.
pKi here: minus log base 10 of the concentration, concentration in moles per litre.

# SAMPLE SMILES, TARGET OR TEST SYSTEM, pKi
records = [
    ("COc1ccc(CNc2c3c(nc4ccccc24)CCCC3)cc1OC", "UniProt:P81908", 7.51),
    ("c1ccc(COc2ccc(CCOCCCCCNc3c4c(nc5ccccc35)CCCC4)cc2)cc1", "UniProt:P81908", 8.72),
    ("c1ccc(COc2ccc(CCOCCCCCNc3c4c(nc5ccccc35)CCCC4)cc2OCc2ccccc2)cc1", "UniProt:P81908", 8.34),
    ("C(=N\\c1c2c(nc3ccccc13)CCCC2)/c1cc(OCc2ccccc2)c(OCc2ccccc2)c(OCc2ccccc2)c1", "UniProt:P81908", 6.15),
]

Ask: Find pKi (UniProt:P81908) for the entry Oc1ccc(CCNc2c3c(nc4ccccc24)CCCC3)cc1
Reply: 6.74
